// data source = patent US7994336B2

Measured target: human orexin-2 receptor (Homo sapiens)
Construct: expressed in transfected cells; host or cells: CHO cells (grown under G418 selection)
Sequence (O43614 1-444): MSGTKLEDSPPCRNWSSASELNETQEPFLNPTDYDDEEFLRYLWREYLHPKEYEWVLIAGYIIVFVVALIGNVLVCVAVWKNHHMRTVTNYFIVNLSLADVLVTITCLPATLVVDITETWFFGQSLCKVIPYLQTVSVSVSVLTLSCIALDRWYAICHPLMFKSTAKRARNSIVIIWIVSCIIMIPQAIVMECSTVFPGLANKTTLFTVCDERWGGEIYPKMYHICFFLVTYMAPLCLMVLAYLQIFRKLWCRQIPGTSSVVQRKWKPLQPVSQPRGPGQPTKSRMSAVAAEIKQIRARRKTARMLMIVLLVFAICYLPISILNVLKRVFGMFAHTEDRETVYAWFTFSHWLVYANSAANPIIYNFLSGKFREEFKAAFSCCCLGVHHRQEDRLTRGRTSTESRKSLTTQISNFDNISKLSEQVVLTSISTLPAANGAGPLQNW
Assay notes: Intracellular calcium measurements (FLIPR), orexin receptor antagonistic activity
Type: cell-based
Measurement parameters: CHO cells expressing human orexin-2 receptor; 10 nM orexin-A as agonist; fluo-3 AM calcium signal; read-out: OX2 IC50
Each item that follows carries a reported IC50.

Molecule	IC50 (nM)
Cc1cccc(-c2sc(C)nc2C(=O)N2CCC2CNC(=O)c2nc3sccn3c2C)c1 (racemic)	41
Cc1cccc(-c2oc(C)nc2C(=O)N2CCC2CNC(=O)c2c(C)nc3sccn23)c1 (stereo not drawn)	406
Cc1nc(C(=O)N2CCC2CNC(=O)c2c(C)nc3sccn23)c(-c2ccc(Cl)c(Cl)c2)s1 (racemic)	25
